Target: T1, Human CD19-his protein (human, UniProt P15391 20-291)
T1 construct: bought protein; also called human CD19 protein; recombinant human CD19-His; not shown: His tag
T1 sequence (looked up): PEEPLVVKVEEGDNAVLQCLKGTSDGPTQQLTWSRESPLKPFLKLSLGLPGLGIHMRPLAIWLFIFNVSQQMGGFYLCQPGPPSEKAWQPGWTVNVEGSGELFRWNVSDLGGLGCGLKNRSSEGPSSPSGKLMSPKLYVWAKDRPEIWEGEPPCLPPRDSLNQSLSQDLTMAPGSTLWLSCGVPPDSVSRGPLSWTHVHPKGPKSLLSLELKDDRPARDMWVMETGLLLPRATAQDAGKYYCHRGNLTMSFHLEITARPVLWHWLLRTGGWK
Assay: ELISA, antibody at 1.00 nM
For each of the binders below, state its OD450.
One number for each entry.

Record excerpt, results attached:
Binder	Metric name	Experimental value
F4.82.11 (antibody, human IgG1, V domains shown, human-murine chimeric antibody, human IgG1) VH: QVTLKESGPGILQASQTLSLTCSFSGFSLSTFGIGVGWVRQPSGKGLEWLAHIWWNDNKFFNTTLKNRLTLSKDPSNNQVFLKIASVDTADTATYYCARSRSALITTGLYAMDYWGQGTSVTVSS VL: DIQMTQTPSSLSASLGDRVTISCRSSQDISNYVNWYQQKPDGTVKVLINYTSRLHSGVPSRFSGSGSGTDYSLTISNLEQEDIASYFCQQGFTLPYTFGGGTKLEIK	OD450	1.6
F4.49.11 (antibody, human IgG1, V domains shown, human-murine chimeric antibody, human IgG1) VH: DVQLRASGPGLVKPSQSLSLTCSVTGYSITSGYYWNWIRQFPGNKLEWMGCISYDGTNNYNPSLKNRISFTRDTSKNQFFLNLNSVTTEDSATYYCARRVYYRYDGVVDYWGQGTSVTVSS VL: ENVLTQSPAIMSASPGEKVTMTCSASSSVSYIHWYQQKSSTAPKLWIYDTSKLASGVPGRFSGSRSRNSYSLTISSMEAEDVATYYCFQGSGYPLTFGSGTKLEIK	OD450	0.48

Could you now look at the following binder, please?
Quote OD450 reported for F4.78.1 (antibody, human IgG1, V domains shown, human-murine chimeric antibody, human IgG1) VH: QVQIQQSGAELARPGASVKLSCKASGYTFTNYWMQWIKQRPGQGLEWIGAIYPGDGDTRYTQKFKGKATLTADKSSSTAYMQLSSLASEDSAVYYCAREEVWSPYGMDYWGQGTSVTVSS VL: QIVLTQSPAIMSASPGEKVTITCSASSSVSYMGWFQQKPGTSPKLWIYSTSNLASGVPARFSGSGSGTSYSLTISRMEAEDAATYYCQQRSIYPLTFGAGTKLELK please. 1.73
